Hey, just so you know, these numbers are from ChEMBL document CHEMBL4130502.

Biological target: UniProt:P50637
Sequence (P50637 whole entry, looked up): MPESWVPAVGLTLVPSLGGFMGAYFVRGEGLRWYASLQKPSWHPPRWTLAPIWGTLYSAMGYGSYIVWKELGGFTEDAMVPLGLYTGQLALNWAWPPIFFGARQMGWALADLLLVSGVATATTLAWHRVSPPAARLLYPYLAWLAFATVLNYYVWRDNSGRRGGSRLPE
Test: Inhibition of TSPO in mouse HT22 cells assessed as reduction in amyloid beta (1 to 42) (unknown origin) induced mitochondrial permeability transition pore formation by measuring increase in green to red fluorescence ratio at 5 uM pretreated for 10 mins followed by amyloid beta (1 to 42) stimulation and measured at 1 hr interval for 3 hrs by JC-1 dye based fluorescence assay relative to control
Format: cell-based
Parameters: scale not given: the % may be the effect or the level left
Endpoint name: Activity (%)
Answers are plain numbers, in %.

Examples with their reported Activity follow.
In [3]: df
Out[3]:
                                   compound  recorded_number
0  Cc1ccc(S(=O)(=O)Nc2ccc3c(c2)sc(=O)n3C)c(C)c1                4
1  COC(=O)CN(c1ccc(C(C)C)cc1)S(=O)(=O)c1ccc(C)cc1               67
2  CCc1nnc(SCC(=O)Nc2ccccc2)c2cc3sc(Cl)cc3n12               66
3       CN1C(=O)CN=C(c2ccccc2)c2cc(Br)ccc21                0

Hi team, please reply with Activity for each item in this list.
1. CCOC(=O)C(C)N1C(=O)CN=C(c2ccc(OC)cc2)c2c1sc1c2CCCC1 (stereo not drawn)
2. Cn1c(SCC(=O)NCc2ccccc2)nnc1-c1cc2ccccc2o1
3. COC(=O)C1CCc2ccccc2N1C(=O)c1ccc(OC)cc1 (stereo not drawn)
4. Cc1cc2c(cc3c(SCC(=O)NCc4ccccc4)nnc(C)n32)s1
5. Cc1nnc(SCC(=O)NCc2ccccc2)c2cc3sccc3n12
6. CCc1nnc(SCC(=O)NCc2ccccc2)c2cc3sc(C)cc3n12
7. Cc1nnc(SCC(=O)N(C)c2ccccc2)c2cc3sccc3n12
8. CCc1nnc(SCC(=O)NCc2ccccc2)c2cc3sccc3n12

## Result
1: 24; 2: 19; 3: 38; 4: 35; 5: 48; 6: 55; 7: 56; 8: 50

---

Target: UniProt P50637
Assay: Inhibition of TSPO in mouse HT22 cells assessed as reduction in amyloid beta (1 to 42) (unknown origin) induced mitochondrial permeability transition pore formation by measuring increase in green to red fluorescence ratio at 5 uM pretreated for 10 mins followed by amyloid beta (1 to 42) stimulation and measured at 1 hr interval for 3 hrs by JC-1 dye based fluorescence assay relative to control
Format: cell-based
Design: scale not given: the % may be the effect or the level left
Values of Activity greater than or equal to 50% map to t; values below map to f.

Some solved cases for reference:
In [3]: df
Out[3]:
                               input_smiles  target_under_test  class_label
0  Cc1cc2c(cc3c(SCC(=O)Nc4ccccc4)nnc(C)n32)s1     UniProt P50637            t
1  CCc1nn(CC(=O)N(CC)Cc2ccccc2)c(=O)c2cc3sccc3n12     UniProt P50637            t
2        Cc1ccc2c(c1)C(c1ccccc1)=NCC(=O)N2C     UniProt P50637            f
3  COc1ccc(NC(=O)Cn2nc(C)n3c(cc4sc(C)cc43)c2=O)cc1OC     UniProt P50637            t
4  Cc1noc(C)c1S(=O)(=O)NC(c1ccccc1)c1ccccc1     UniProt P50637            f

## Task Is Activity for `CCc1nnc(SCC(=O)Nc2ccccc2)c2cc3sccc3n12` at or above 50%?
## Result f

## Task Is Activity for `CCc1nnc(SCC(=O)N(C)c2ccccc2)c2cc3sc(C)cc3n12` at or above 50%?
## Result t

## Task Is Activity for `CCN(Cc1ccccc1)C(=O)Cn1nc(C)n2c(cc3sc(C)cc32)c1=O` at or above 50%?
## Result f

## Task Is Activity for `CCN(C(=O)CCl)c1ncc(-c2ccc(OC)cc2)s1` at or above 50%?
## Result f

## Task Is Activity for `Cc1cc2c(cc3c(SCC(=O)N(C)c4ccccc4)nnc(C)n32)s1` at or above 50%?
## Result t

## Task Is Activity for `Cc1ccc(S(=O)(=O)NCc2cccnc2)c(C)c1` at or above 50%?
## Result f
